Kindly supply the reported hERG Patch Clamp hERG % blk values for the records listed here.
- assayed.system: hERG potassium channel (Homo sapiens)
- Sequence (Q12809 whole entry): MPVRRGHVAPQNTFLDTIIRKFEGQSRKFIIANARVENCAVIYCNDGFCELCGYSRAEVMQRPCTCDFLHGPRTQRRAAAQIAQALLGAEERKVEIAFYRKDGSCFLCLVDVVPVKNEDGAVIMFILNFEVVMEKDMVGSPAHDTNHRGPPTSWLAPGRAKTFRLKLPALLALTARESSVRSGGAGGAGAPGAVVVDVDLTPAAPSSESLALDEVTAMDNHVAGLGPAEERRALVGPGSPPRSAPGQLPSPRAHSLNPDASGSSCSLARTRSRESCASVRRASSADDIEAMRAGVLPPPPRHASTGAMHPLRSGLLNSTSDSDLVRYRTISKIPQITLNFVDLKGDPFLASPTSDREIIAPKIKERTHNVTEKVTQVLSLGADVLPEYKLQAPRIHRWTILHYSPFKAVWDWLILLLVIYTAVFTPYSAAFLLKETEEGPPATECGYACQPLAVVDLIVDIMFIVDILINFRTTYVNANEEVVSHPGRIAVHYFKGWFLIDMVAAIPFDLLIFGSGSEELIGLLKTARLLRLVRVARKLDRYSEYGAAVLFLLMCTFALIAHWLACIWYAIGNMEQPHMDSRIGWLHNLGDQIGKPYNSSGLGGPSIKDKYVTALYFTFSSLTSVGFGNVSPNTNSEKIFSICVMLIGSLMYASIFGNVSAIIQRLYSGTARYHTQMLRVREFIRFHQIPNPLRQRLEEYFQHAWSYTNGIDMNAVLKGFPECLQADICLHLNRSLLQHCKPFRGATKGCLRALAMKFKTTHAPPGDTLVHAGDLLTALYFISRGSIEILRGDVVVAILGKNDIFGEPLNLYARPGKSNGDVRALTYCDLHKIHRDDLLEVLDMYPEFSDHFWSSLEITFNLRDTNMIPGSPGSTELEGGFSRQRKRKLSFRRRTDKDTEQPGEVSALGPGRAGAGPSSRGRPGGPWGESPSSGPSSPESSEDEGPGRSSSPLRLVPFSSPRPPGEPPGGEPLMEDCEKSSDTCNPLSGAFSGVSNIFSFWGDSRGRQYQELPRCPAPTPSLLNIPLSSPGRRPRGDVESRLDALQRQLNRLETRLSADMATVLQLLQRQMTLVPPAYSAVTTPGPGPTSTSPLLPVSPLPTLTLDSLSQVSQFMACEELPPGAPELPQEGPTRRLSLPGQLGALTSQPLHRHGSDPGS
- test.protocol: hERG screening assay (PatchXpress patch clamp, CHO cell line)
- experimental.parameters: 1 μM
Value expressed in %; do not type the unit.

So, CC1=C(C(=O)OC(C)C)C(c2ccc3ccccc3c2)C2=C(CCCC2=O)N1 (stereo not drawn) [PT-157] ? Its hERG Patch Clamp hERG % blk was 16.0

The recorded hERG Patch Clamp hERG % blk for CC1=C(C(=O)OCc2ccccc2)C(c2c3ccccc3cc3ccccc23)n2nnnc2N1 (stereo not drawn) [PT-039] is 10.0

Entry CC1=C(C(=O)N2CCC(c3ccc(C(=O)O)cc3)CC2)C(c2cccc3ccccc23)C2=C(CCCC2=O)N1 (stereo not drawn) [PT-173] ; hERG Patch Clamp hERG % blk = 12.0

Briefly, hERG Patch Clamp hERG % blk measured for CC1=C(C(=O)OCc2ccccc2)C(c2nccs2)n2nccc2N1 (stereo not drawn) [PT-363] : 10.0

For record N#CC1=C(N)OC2=C(C(=O)CC(c3ccccc3)C2)C1c1ccco1 (stereo not drawn) [PT-104] the listed hERG Patch Clamp hERG % blk is 18.0

Kindly note the recorded hERG Patch Clamp hERG % blk for CCCC1=C(C(=O)OCC)C(c2ccc(C(=O)O)cc2)C2=C(CC(C)(C)CC2=O)N1 (stereo not drawn) [PT-133] , which is 10.0

The molecule CCOC(=O)C1=C(C)NC(C)=C(C(=O)OCC)C1c1cccs1 [PT-111] showed hERG Patch Clamp hERG % blk equal to 11.5

Note to self: hERG Patch Clamp hERG % blk recorded for CC1=C(C(=O)OC(C)C)C(c2cccc3ccccc23)n2nnnc2N1 (stereo not drawn) [PT-021] was 13.0

Input CC1=C(C(=O)OCc2ccccc2)C(c2ccccc2-c2ccc(C(=O)O)cc2)C2=C(CCCC2=O)N1 (stereo not drawn) [PT-249] . Output hERG Patch Clamp hERG % blk: 11.5
